Experiment: Activation of AMPK assessed as phosphorylation of T172 at 10 uM by Western blotting relative to control
quantity.name: Activity

{"columns": ["smiles.entry", "quantity.name", "result"],
 "data": [
  ["COc1ccc2c(c1O)OC(C)(C)c1c-2ccc2c1C(=O)N(c1ccc(C(=O)c3ccccc3)cc1)C2=O", "Activity", "322%"],
  ["COc1ccc2c(c1O)OC1(CCCC1)c1c-2ccc2c1C(=O)N(c1ccc(C(=O)c3ccccc3)cc1)C2=O", "Activity", "113%"],
  ["COc1ccc2c(c1O)OC(C)(C)c1c-2ccc2c1C(=O)N(c1ccc3c(c1)-c1ccccc1C3=O)C2=O", "Activity", "249%"]
]}

Now take the following compound into account.
# input # lookup: Activity of `COc1ccc2c(c1O)OC(C)(C)c1c-2ccc2c1C(=O)NC2=O`
# output 158%
